tested on: HT-29; experiment: Anticancer activity against human HT-29 cells assessed as inhibition of cell proliferative measured after 48 hrs by MTT assay; assay type: functional, cell-based; conditions: HT-29, 48 h

| COMPOUND | IC50 |
| --- | --- |
| O=C1NC2(CO1)O/C(=C\c1ccc(Cl)cc1)C(=O)N2CCCNc1ccnc2cc(Cl)ccc12 (stereo unspecified) | 32.4 µM |

* * *

tested on: PC-3; assay: Inhibition of mitochondrial protein synthesis in human PC-3 cells at 100 uM incubated for 5 days; assay type: functional, cell-based; conditions: PC-3, 120 h

| COMPOUND_STRING | IC50 |
| --- | --- |
| COC(=O)NC[C@H]1CN(c2ccc(N3CC4(COC4)C3)c(F)c2)C(=O)O1 | > 74 µM |
